Target: Left-right determination factor 2 (Homo sapiens)
Assay: small molecules binding LEFTY2 protein – biochemical, small-molecule microarray, 635 nm fluorescence scan, primary screen (AID 1110)
Details: higher = more signal
Reported composite z-score values follow for various compounds
Write the number on its own, no unit after it.

[[record]]
structure_as_smiles = "O=C1N(CCS(=O)(=O)c2ccccc2)c2ccccc2[C@@H]2OC(c3ccc(OCCCO)cc3)=N[C@]12Cc1ccccc1"
number = 0.248

[[record]]
structure_as_smiles = "CCCC[C@@H]1C[C@H]1[C@@H](NC(=O)c1cccnc1)c1ccc(Cl)cc1"
number = -2.99

[[record]]
structure_as_smiles = "C=CC[C@]1(C(N)=O)N=C(c2ccc(OCCCO)cc2)O[C@H]1c1ccccc1"
number = -0.524


Please turn your attention to the following entry.
Ask | Please give the measured composite z-score for this compound: `COc1cc(CO)cc(I)c1O[C@H]1C=C(C(=O)NCCO)C[C@@H](NC[C@@H]2CCCO2)[C@@H]1O`
Reply | 0.187
